assay: NFkB reporter suppression in cystic fibrosis bronchial cells – cell-based, uHTS hits, panel, cytotoxicity readout, dose response (AID 624344); details: CF bronchial epithelial cells, PAF-induced NFkB reporter inhibition; with PAF, mean of runs
The source made the active and inactive calls. How the calls were made is not given here.
Write down the outcome that applies. Available outcomes: active, inactive

Assay outcome for Cc1ccc(CCC(=O)Nc2ncc(Cc3cc(Cl)ccc3Cl)s2)o1 : what was it?
active

Assay outcome for Cc1ccc(C(=O)Nc2cccc(C(F)(F)F)c2)cc1NC(=O)c1nccnc1N : what was it?
active

Assay outcome for CC1(Cc2cccc(F)c2)C(=O)Nc2ccc(-c3cccnc3)cc21 (stereo unspecified) : what was it?
active

Assay outcome for CCc1cc2c(Sc3nc4ccccc4s3)ncnc2s1 : what was it?
active

Assay outcome for Cc1cc2cc(CCNC(=O)C(=O)c3c[nH]c4ccccc34)c(=O)[nH]c2cc1C : what was it?
active

Assay outcome for NC(=Nc1ccccc1)NN=Cc1c[nH]c2ccccc12 : what was it?
inactive

Assay outcome for CCOC(=O)c1ccc(NC(=O)Nc2nncs2)cc1 : what was it?
active

Assay outcome for O=S(=O)(c1ccc(Br)cc1)c1cnc2ccccc2n1 : what was it?
active

Assay outcome for Clc1ccc(CSc2nnc(-c3ccncc3)o2)cc1 : what was it?
active

Assay outcome for COc1ccc(-n2nnnc2C(c2cccc(OC)c2OC)N2CCC(n3c(=O)[nH]c4ccccc43)CC2)cc1 (stereo unspecified) : what was it?
active

Assay outcome for Cc1ccsc1CN(C)c1ncnc2ccc(-c3ccoc3)cc12 : what was it?
active

Data origin: PubChem BioAssay AID624344
